Test system: MCF7 cells
Experiment: Cell proliferation assay (ATPlite), MCF-7
Format: cell-based, human
Conditions: Homo sapiens, inhibition of cell proliferation, 72 h
pEC50: −log10 of the molar value.
MEASURED ENDPOINT: pEC50

Guide cases for pEC50, answers given:
Cc1ccc(S(=O)(=O)Nc2cc(-c3ccc([N+](=O)[O-])c(C)n3)ccc2C)cc1 > 6.30
Cc1ccc(S(=O)(=O)Nc2cc(-c3cccc(C#N)n3)ccc2C)cc1 6.00 to 6.30
COc1ccc(S(=O)(=O)Nc2cc(-c3cccc(C#N)c3)ccc2C)cc1 6.00 to 6.30
COc1ccc(S(=O)(=O)Nc2cc(-n3ccc(C)n3)ccc2C)cc1 > 6.30
Cc1ccc(S(=O)(=O)Nc2cc(-c3cccc(C)n3)ccc2C)cc1 6.00 to 6.30
Cc1ccc(S(=O)(=O)Nc2cc(-c3ccc(C)cn3)ccc2C)cc1 5.00 to 6.00
COc1ccc(-c2ccc(C)c(NS(=O)(=O)c3ccc(C)cc3)c2)cn1 5.00 to 6.00

Could you now look at the following compound, please?
Ask: // lookup pEC50 for COc1ccc(S(=O)(=O)Nc2cc(-c3ccc(SC)cc3)ccc2C)cc1
Result: 5.00 to 6.00
